experimental target: UniProt:P11597
Sequence (P11597 whole entry): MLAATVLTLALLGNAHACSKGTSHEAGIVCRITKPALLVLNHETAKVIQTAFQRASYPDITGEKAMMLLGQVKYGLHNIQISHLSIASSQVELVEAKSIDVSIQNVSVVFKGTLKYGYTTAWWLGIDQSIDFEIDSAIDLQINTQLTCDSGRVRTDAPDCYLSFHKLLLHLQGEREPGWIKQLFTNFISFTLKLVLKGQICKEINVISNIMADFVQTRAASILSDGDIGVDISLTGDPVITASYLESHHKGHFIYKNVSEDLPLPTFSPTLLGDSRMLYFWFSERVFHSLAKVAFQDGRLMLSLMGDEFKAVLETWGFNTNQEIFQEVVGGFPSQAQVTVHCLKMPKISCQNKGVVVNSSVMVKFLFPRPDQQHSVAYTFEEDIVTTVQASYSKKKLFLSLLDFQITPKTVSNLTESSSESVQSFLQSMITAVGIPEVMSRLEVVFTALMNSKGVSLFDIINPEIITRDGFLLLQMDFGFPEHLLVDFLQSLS
quantity measured: IC50

Solved cases (5 shown):
CC(C)c1cc(C#N)cc2nc(-c3ccc(C(=O)NC[C@H]4CC[C@H](c5ccc(C(F)(F)F)cc5)CC4)cc3)oc12
40 nM
CC(C)Oc1ccc(F)cc1-c1ccc(N2CC(CNC(=O)c3ccc(-c4nc5cc(C#N)cc(C(C)C)c5o4)cc3)OC2=O)nc1 (racemic)
124 nM
CC(C)c1cc(C#N)cc2nc(-c3ccc(C(=O)NC[C@H]4CC[C@H](c5ccc(Cl)cc5)CC4)cc3)oc12
77 nM
CC(C)c1cc(C#N)cc2nc(-c3ccc(C(=O)NC[C@H]4CN(c5ccc(-c6ccccc6OC(F)(F)F)cn5)C(=O)O4)cc3)oc12
140 nM
Cc1cccc([C@H]2CC[C@@H](CNC(=O)c3ccc(-c4nc5cc(C#N)cc(C(C)C)c5o4)cc3)CC2)c1
145 nM

Given item CC(C)c1cc(C#N)cc2nc(-c3ccc(C(=O)NC[C@]4(C)CN(c5ccc(-c6ccccc6OC(F)(F)F)cn5)C(=O)O4)cc3)oc12 , the value recorded as its IC50 is 22 nM

Given item Cc1ccc(OC(C)C)c(-c2ccc(N3CC(CNC(=O)c4ccc(-c5nc6cc(C#N)cc(C(C)C)c6o5)cc4)OC3=O)nc2)c1 (racemic) , the value recorded as its IC50 is 171 nM

Given item CC(C)c1cc(C#N)cc2nc(-c3ccc(C(=O)NCC4CN(c5ccc(-c6ccccc6C#N)cn5)C(=O)O4)cc3)oc12 (racemic) , the value recorded as its IC50 is 829 nM
